Origin of values: patent US20250195412A1

experimentDescription: Solubility profile in solvents
conditionInfo: 1-propanol, organic solvent or mixture
quantityMeasured: solubility

structureNotation | quantityMeasured | reported
CN[C@@]1(c2ccccc2Cl)CCCCC1=O | solubility | 13 to 15 mg/mL

----------
experimentDescription: Solubility profile in solvents
conditionInfo: DMSO, ethanol, organic solvent or mixture
quantityMeasured: solubility

structureNotation | reported
CN[C@@]1(c2ccccc2Cl)CCCCC1=O | 20 to 30 mg/mL

----------
experimentDescription: Solubility profile in solvents
conditionInfo: water, pH 4, water
quantityMeasured: solubility

structureNotation | reported
CN[C@@]1(c2ccccc2Cl)CCCCC1=O | > 140 mg/mL

----------
experimentDescription: Log P (general properties)

structureNotation | logP
CN[C@@]1(c2ccccc2Cl)CCCCC1=O | 2.18
